- Test system: human neonatal fibroblasts
- MEASUREMENT_NOTES: Cell viability by ATP content of substantially dry stored human neonatal fibroblasts
- Assay type: cell-based
- Parameters: concentration or dose not given beside the values
- RUN_PARAMETERS: inhibitor in predehydration and rehydration formulation, MCS dehydration formulation 41, dry stored 48 hr at ambient temperature
MEASURED_QUANTITY: % CELL VIABILITY 48 hr (%)
Reply numerically in %, unit not repeated.

Observe how each entry below is paired with its result.
O=C(/C=C/c1ccccc1)NC(NC(=S)Nc1cccc2cccnc12)C(Cl)(Cl)Cl (stereo not drawn); 72.9
CO[C@H]1C[C@@H]2CC[C@@H](C)[C@@](O)(O2)C(=O)C(=O)N2CCCC[C@H]2C(=O)O[C@H]([C@H](C)C[C@@H]2CC[C@@H](O)[C@H](OC)C2)CC(=O)[C@H](C)/C=C(\C)[C@@H](O)[C@@H](OC)C(=O)[C@H](C)C[C@H](C)/C=C/C=C/C=C/1C; 73.2
C[S+]([O-])CCCCN=C=S (stereo not drawn); 65.3
O=c1cc(N2CCOCC2)oc2c(-c3ccccc3)cccc12; 85.9

Using the record for `O=C(NOC[C@H](O)CO)c1ccc(F)c(F)c1Nc1ccc(I)cc1F` , report its % CELL VIABILITY 48 hr.
85.1

Field entry: `OC[C@H]1O[C@H](O[C@H]2O[C@H](CO)[C@@H](O)[C@H](O)[C@H]2O)[C@H](O)[C@@H](O)[C@@H]1O`
0.0

###

- Test system: human neonatal fibroblasts
- MEASUREMENT_NOTES: Cell viability by ATP content of substantially dry stored human neonatal fibroblasts
- Type: cell-based
- Set-up: concentration or dose not given beside the values
- RUN_PARAMETERS: inhibitor in predehydration and rehydration formulation, MCS dehydration formulation 41, dry stored 24 hr at ambient temperature
MEASURED_QUANTITY: % CELL VIABILITY 24 hr
Could you give the number and then its unit, please?

Observe how each entry below is paired with its result.
O=c1cc(N2CCOCC2)oc2c(-c3ccccc3)cccc12 [LY294002]; 83.8%
CO[C@H]1C[C@@H]2CC[C@@H](C)[C@@](O)(O2)C(=O)C(=O)N2CCCC[C@H]2C(=O)O[C@H]([C@H](C)C[C@@H]2CC[C@@H](O)[C@H](OC)C2)CC(=O)[C@H](C)/C=C(\C)[C@@H](O)[C@@H](OC)C(=O)[C@H](C)C[C@H](C)/C=C/C=C/C=C/1C [Rapamycin]; 88.4%

Using the record for O=C(/C=C/c1ccccc1)NC(NC(=S)Nc1cccc2cccnc12)C(Cl)(Cl)Cl (stereo not drawn) [Salubrinal] , report its % CELL VIABILITY 24 hr.
100.0%

Field entry: C[S+]([O-])CCCCN=C=S [L-sulphurophane]
98.8%

Field entry: O=C(NOC[C@H](O)CO)c1ccc(F)c(F)c1Nc1ccc(I)cc1F [PD032591]
100.0%

Field entry: OC[C@H]1O[C@H](O[C@H]2O[C@H](CO)[C@@H](O)[C@H](O)[C@H]2O)[C@H](O)[C@@H](O)[C@@H]1O [Trehalose]
7.5%
